# assayedTarget: Metabotropic glutamate receptor 2 (Homo sapiens)
# Sequence (Q14416 whole entry): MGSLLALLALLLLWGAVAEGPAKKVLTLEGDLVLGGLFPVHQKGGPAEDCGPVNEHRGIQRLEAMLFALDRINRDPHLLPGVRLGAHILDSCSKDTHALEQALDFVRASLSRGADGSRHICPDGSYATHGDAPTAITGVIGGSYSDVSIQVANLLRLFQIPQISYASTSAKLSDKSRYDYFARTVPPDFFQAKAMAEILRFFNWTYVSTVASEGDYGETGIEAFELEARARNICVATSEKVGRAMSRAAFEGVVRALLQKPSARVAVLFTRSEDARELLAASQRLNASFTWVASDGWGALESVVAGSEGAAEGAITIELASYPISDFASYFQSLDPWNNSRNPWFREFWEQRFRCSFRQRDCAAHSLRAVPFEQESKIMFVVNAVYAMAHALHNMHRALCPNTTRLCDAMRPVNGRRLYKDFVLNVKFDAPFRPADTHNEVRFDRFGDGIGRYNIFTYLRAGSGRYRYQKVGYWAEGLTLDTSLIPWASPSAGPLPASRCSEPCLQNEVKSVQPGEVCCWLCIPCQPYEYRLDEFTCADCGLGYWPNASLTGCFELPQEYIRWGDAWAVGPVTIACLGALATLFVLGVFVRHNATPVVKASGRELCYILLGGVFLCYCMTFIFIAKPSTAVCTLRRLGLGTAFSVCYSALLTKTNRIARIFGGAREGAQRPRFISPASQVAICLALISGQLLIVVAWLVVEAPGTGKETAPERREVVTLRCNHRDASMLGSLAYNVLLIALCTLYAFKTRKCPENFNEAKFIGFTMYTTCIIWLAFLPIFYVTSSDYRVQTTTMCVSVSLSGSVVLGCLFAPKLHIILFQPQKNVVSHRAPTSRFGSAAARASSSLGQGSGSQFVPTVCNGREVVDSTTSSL
# assayInfo: Binding affinity towards human metabotropic glutamate receptor 2 determined by [35S]GTP gamma S binding assay
# Format: functional
So I've got a bunch of molecules here, and I need their pEC50 values.
One number for each entry, as −log10 of the molar value.

Recorded results for 10 molecules are shown here.
>>> readoutvalue("Cc1c(OCCCCOc2cccc(F)c2F)ccc(C(=O)CC(C)C)c1O")
6.42
>>> readoutvalue("Cc1c(OCCCCSc2ccccn2)ccc(C(=O)CC(C)C)c1O")
5.81
>>> readoutvalue("CC(C)CC(=O)c1ccc(OCCCCOc2ccccc2)c(Br)c1O")
5.82
>>> readoutvalue("Cc1c(OCc2ccccc2Sc2ccncc2)ccc(C(=O)CC(C)C)c1O")
6.17
>>> readoutvalue("CC(C)CC(=O)c1ccc(OCCCCSc2ccncc2)c(Br)c1O")
6.17
>>> readoutvalue("Cc1c(OCc2cccc(Sc3ccncc3)c2)ccc(C(=O)CC(C)C)c1O")
6.05
>>> readoutvalue("Cc1c(OCCCCOc2cccnc2)ccc(C(=O)CC(C)C)c1O")
5.77
>>> readoutvalue("Cc1c(OCCCCOc2ccc(-n3cncn3)cc2)ccc(C(=O)CC(C)C)c1O")
5.37
>>> readoutvalue("Cc1c(OCc2ccc(Sc3ccncc3)cc2)ccc(C(=O)CC(C)C)c1O")
5.97
>>> readoutvalue("Cc1c(OCCCCOc2ccccc2F)ccc(C(=O)CC(C)C)c1O")
5.70

Read the next record carefully.
Please give measured pEC50 of the following entry: `CC(C)CC(=O)c1ccc(OCCCCOc2cccnc2)c(Br)c1O`
6.24
